biological target: GRK4 (human); assay: KINOMEscan competition binding; details: compound 10.0 µM
Task for the reader: assign each of the following compounds its reported kinase still bound, per cent of control.
Answers are plain numbers, in %.

Completed entries (count: 5):
OCCCNc1cc(-c2ccnc(Nc3cccc(Cl)c3)n2)ccn1 100
Nc1ccc(-c2ccc3ncc4ccc(=O)n(-c5cccc(C(F)(F)F)c5)c4c3c2)cn1 92
C=CC(=O)Nc1cc(NC(=O)c2ccc(C)c(NC(=O)c3ccno3)c2)cc(C(F)(F)F)c1 100
O=C(NOC[C@H](O)CO)c1ccc(F)c(F)c1Nc1ccc(I)cc1F 100
C[C@@H](Oc1cc(-n2cnc3ccc(CN4CCN(C)CC4)cc32)sc1C(N)=O)c1ccccc1C(F)(F)F 16

Q: Would you kindly share the measured kinase still bound, per cent of control for CCOc1cc2ncc(C#N)c(Nc3ccc(OCc4ccccn4)c(Cl)c3)c2cc1NC(=O)/C=C/CN(C)C ?
Result: 68

* * *

Please provide measured kinase still bound, per cent of control for the entries that follow.
target: UniProt O75914; test: KINOMEscan competition binding; conditions: compound 10.0 µM
Sequence (O75914 whole entry, looked up): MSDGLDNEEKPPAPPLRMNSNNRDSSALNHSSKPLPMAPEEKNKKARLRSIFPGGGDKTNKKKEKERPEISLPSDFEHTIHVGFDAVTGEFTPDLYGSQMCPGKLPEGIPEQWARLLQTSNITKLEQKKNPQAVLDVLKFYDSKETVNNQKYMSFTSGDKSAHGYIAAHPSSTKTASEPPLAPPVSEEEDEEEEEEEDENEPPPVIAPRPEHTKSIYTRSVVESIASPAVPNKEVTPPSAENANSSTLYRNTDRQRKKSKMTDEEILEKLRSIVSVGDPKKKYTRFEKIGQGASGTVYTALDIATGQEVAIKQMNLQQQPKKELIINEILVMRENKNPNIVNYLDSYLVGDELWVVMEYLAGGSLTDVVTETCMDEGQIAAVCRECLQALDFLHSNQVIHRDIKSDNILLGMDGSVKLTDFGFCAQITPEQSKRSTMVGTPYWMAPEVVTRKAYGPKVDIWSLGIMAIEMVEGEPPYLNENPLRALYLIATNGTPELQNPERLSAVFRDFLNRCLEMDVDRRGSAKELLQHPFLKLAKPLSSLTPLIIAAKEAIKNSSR
Numbers only, in %.

Known kinase still bound, per cent of control results, listed for orientation:
CC[C@@H]1C(=O)N(C)c2cnc(Nc3ccc(C(=O)NC4CCN(C)CC4)cc3OC)nc2N1C1CCCC1 100
CCOc1cc2ncc(C#N)c(Nc3ccc(OCc4ccccn4)c(Cl)c3)c2cc1NC(=O)/C=C/CN(C)C 100
CN(C)C/C=C/C(=O)Nc1cccc(Nc2ncc3c(n2)N(C)c2ccccc2C(=O)N3C)c1 14
COc1cc(C(=O)NC2CCN(C)CC2)ccc1Nc1ncc2c(n1)N(C1CCCC1)CCC(=O)N2C(C)C 100
Nc1ccc(-c2ccc3ncc4ccc(=O)n(-c5cccc(C(F)(F)F)c5)c4c3c2)cn1 100

For every listed record, write down its kinase still bound, per cent of control.
1. Cc1ccc(NC(=O)c2cccc(C(C)(C)C#N)c2)cc1Nc1ccc2ncn(C)c(=O)c2c1
2. Cc1ccc2nc(NCCN)c3ncc(C)n3c2c1
3. Cc1ccc(C(=O)Nc2cccc(C(F)(F)F)c2)cc1Nc1cncc(C(N)=O)c1
4. N#Cc1c(NC(=O)c2cccc3ccccc23)sc2c1CCCC2

Result:
1: 81; 2: 62; 3: 100; 4: 94

* * *

target: BRSK1 (human); assay: KINOMEscan competition binding; conditions: compound 10.0 µM
Answer each item with its documented kinase still bound, per cent of control.
One number for each entry, in %.

Examples with answers:
O=C1Nc2ccc(I)cc2/C1=C/c1cc(Br)c(O)c(Br)c1 85
COc1cc(C(=O)NC2CCN(C)CC2)ccc1Nc1ncc2c(n1)N(C1CCCC1)CCC(=O)N2C(C)C 100

Q: Request the reported kinase still bound, per cent of control associated with CC[C@@H]1C(=O)N(C)c2cnc(Nc3ccc(C(=O)NC4CCN(C)CC4)cc3OC)nc2N1C1CCCC1
Result: 100

* * *

target: MYLK4 (human) (UniProt Q86YV6); assay: KINOMEscan competition binding; conditions: compound 10.0 µM
Sequence (Q86YV6 whole entry, looked up): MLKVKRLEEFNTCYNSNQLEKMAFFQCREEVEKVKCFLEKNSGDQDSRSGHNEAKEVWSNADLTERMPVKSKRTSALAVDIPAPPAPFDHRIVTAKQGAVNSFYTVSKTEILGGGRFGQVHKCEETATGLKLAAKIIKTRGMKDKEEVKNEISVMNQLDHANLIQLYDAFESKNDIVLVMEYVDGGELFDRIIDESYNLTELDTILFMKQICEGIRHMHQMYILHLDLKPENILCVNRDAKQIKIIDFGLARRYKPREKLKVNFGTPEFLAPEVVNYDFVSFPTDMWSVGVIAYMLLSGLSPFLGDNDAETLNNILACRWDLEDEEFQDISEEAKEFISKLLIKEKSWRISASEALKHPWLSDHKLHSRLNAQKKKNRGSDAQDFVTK
Please go through the items and note down their kinase still bound, per cent of control.
Provide a numeric answer, followed by its unit.

Below are worked cases with known answers.
CC[C@@H]1C(=O)N(C)c2cnc(Nc3ccc(C(=O)NC4CCN(C)CC4)cc3OC)nc2N1C1CCCC1 100%
O=C(NOC[C@H](O)CO)c1ccc(F)c(F)c1Nc1ccc(I)cc1F 100%
Cc1cc([C@@H](C)Nc2ccccc2C(=O)O)c2nc(N3CCOCC3)cc(=O)n2c1 98%

Shift focus to the following entry.
Q: Data request, read-out kinase still bound, per cent of control, for C=CC(=O)Nc1cccc(Oc2nc(Nc3ccc(N4CCN(C)CC4)cc3OC)ncc2Cl)c1
Result: 24%

* * *

target: PLK4 (human) (UniProt O00444); experiment: KINOMEscan competition binding; settings: compound 10.0 µM
Sequence (O00444 whole entry, looked up): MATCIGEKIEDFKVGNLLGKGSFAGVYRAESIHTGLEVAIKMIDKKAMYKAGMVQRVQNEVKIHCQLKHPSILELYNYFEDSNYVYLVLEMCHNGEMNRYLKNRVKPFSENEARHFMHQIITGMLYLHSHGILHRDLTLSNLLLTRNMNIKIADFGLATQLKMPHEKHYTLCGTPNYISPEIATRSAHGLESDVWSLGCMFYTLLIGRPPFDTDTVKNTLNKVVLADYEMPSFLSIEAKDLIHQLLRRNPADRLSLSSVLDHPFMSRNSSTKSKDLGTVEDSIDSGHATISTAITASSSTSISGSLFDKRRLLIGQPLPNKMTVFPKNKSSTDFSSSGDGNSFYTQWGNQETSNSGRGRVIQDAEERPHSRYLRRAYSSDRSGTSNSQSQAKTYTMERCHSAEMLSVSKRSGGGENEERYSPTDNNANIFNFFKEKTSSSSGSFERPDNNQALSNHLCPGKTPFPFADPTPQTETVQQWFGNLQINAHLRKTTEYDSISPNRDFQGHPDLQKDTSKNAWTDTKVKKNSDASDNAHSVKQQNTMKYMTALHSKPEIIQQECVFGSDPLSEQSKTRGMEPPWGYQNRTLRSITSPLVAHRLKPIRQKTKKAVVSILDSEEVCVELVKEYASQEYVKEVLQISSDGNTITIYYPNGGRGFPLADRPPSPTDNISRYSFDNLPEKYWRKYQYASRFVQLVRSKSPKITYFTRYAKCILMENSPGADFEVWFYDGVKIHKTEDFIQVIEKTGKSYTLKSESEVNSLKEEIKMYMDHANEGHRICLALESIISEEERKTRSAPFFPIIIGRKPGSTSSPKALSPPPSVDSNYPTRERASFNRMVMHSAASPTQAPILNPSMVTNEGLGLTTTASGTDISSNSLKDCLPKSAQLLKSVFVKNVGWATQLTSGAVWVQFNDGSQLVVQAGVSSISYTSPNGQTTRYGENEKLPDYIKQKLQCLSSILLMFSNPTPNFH
Would you kindly list kinase still bound, per cent of control for each of these compounds?
Numbers only, in %.

Check out these entries, answers already filled in.
COMPOUND	kinase still bound, per cent of control (%)
Cc1ccc2nc(NCCN)c3ncc(C)n3c2c1	90
Cc1ccc(NC(=O)c2cccc(C(C)(C)C#N)c2)cc1Nc1ccc2ncn(C)c(=O)c2c1	87
COc1cc(N2CCN(C)CC2)ccc1Nc1nc(N)c(C(=O)c2c(Cl)cccc2Cl)s1	100
COc1cc(C(=O)NC2CCN(C)CC2)ccc1Nc1ncc2c(n1)N(C1CCCC1)C(C)CC(=O)N2C (stereo not drawn)	100
C=CC(=O)Nc1cccc(Nc2nc(N[C@H]3CC[C@H](N(C)C)CC3)nc3c2ncn3C(C)C)c1	85
C=CC(=O)Nc1cccc(Oc2nc(Nc3ccc(N4CCN(C)CC4)cc3OC)ncc2Cl)c1	0.2

Batch: kinase still bound, per cent of control for all items listed.
1. N#Cc1c(NC(=O)c2cccc3ccccc23)sc2c1CCCC2
2. Nc1ccc(-c2ccc3ncc4ccc(=O)n(-c5cccc(C(F)(F)F)c5)c4c3c2)cn1
3. Cn1c(=O)n(-c2ccc(C(C)(C)C#N)cc2)c2c3cc(-c4cnc5ccccc5c4)ccc3ncc21

Result:
82
100
100

Each of the following entries comes with a recorded value; kindly state kinase still bound, per cent of control for each.
1. O=C(O)c1ccc(Nc2ncc3c(n2)-c2ccc(Cl)cc2C(c2c(F)cccc2F)=NC3)cc1
2. Cc1cc([C@@H](C)Nc2ccccc2C(=O)O)c2nc(N3CCOCC3)cc(=O)n2c1
3. OCCCNc1cc(-c2ccnc(Nc3cccc(Cl)c3)n2)ccn1
4. O=C1Nc2ccc(I)cc2/C1=C/c1cc(Br)c(O)c(Br)c1

Result:
14
100
100
26

* * *

target: EPHB1 (human) (UniProt P54762); experiment: KINOMEscan competition binding; settings: compound 10.0 µM
Sequence (P54762 whole entry, looked up): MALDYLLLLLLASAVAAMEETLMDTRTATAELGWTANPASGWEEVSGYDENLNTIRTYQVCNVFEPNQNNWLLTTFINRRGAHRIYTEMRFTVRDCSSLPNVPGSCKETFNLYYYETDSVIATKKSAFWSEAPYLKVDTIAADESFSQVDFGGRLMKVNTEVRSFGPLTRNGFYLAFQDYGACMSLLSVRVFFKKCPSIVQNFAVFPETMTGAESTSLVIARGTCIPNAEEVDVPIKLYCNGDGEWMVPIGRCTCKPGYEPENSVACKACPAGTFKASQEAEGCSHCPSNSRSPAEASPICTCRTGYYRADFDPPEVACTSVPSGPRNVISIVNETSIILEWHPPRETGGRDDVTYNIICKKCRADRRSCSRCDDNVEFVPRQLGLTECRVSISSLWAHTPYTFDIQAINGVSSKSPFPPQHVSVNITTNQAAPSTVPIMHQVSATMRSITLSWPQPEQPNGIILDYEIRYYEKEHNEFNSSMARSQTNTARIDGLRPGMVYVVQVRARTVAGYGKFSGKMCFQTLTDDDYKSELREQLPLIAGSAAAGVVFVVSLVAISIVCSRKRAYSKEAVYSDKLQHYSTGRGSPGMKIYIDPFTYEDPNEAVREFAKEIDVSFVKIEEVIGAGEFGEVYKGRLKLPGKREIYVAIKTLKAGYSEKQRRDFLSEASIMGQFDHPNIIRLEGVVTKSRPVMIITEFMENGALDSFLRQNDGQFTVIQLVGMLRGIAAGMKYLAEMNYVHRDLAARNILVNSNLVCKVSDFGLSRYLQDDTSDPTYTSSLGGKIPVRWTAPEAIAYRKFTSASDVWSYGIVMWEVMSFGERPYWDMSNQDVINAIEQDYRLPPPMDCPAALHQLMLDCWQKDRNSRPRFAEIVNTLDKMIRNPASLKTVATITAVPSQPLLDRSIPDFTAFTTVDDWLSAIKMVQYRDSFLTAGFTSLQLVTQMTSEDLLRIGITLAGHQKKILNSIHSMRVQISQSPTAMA
I'd be grateful if you could share measured kinase still bound, per cent of control for these entries.

C=CC(=O)Nc1cccc(Nc2nc(N[C@H]3CC[C@H](N(C)C)CC3)nc3c2ncn3C(C)C)c1 84%
C[C@@H](Oc1cc(-n2cnc3ccc(CN4CCN(C)CC4)cc32)sc1C(N)=O)c1ccccc1C(F)(F)F 99%
Cn1c(=O)n(-c2ccc(C(C)(C)C#N)cc2)c2c3cc(-c4cnc5ccccc5c4)ccc3ncc21 100%

Q: Data request, read-out kinase still bound, per cent of control, for Cc1ccc2nc(NCCN)c3ncc(C)n3c2c1
Result: 100%

* * *

biological target: UniProtKB P19784; test: KINOMEscan competition binding; details: compound 10.0 µM
Sequence (P19784 whole entry, looked up): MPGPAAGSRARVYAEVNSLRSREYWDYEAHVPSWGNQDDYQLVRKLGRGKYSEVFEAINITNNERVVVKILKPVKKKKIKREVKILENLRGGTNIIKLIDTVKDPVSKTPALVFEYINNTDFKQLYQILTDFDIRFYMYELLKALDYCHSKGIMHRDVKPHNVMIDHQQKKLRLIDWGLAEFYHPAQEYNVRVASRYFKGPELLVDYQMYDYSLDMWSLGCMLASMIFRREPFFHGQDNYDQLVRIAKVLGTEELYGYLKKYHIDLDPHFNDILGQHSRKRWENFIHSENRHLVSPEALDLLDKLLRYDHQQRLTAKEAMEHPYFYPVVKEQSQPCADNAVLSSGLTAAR
Entries whose kinase still bound, per cent of control is below 90% take Yes; entries at or above 90% take No.

Cc1ccc(NC(=O)c2cccc(C(C)(C)C#N)c2)cc1Nc1ccc2ncn(C)c(=O)c2c1 No
Cc1cc([C@@H](C)Nc2ccccc2C(=O)O)c2nc(N3CCOCC3)cc(=O)n2c1 No
CCC(=O)N1CCN(c2ccc(-n3c(=O)ccc4cnc5ccc(-c6cnc7ccccc7c6)cc5c43)cc2C(F)(F)F)CC1 Yes
CN(C)C/C=C/C(=O)Nc1cccc(Nc2ncc3c(n2)N(C)c2ccccc2C(=O)N3C)c1 Yes
Cc1ccc2nc(NCCN)c3ncc(C)n3c2c1 Yes
N#Cc1c(NC(=O)c2cccc3ccccc23)sc2c1CCCC2 No
C=CC(=O)Nc1cccc(Oc2nc(Nc3ccc(N4CCN(C)CC4)cc3OC)ncc2Cl)c1 No

Now examine the next entry.
Q: Say whether its kinase still bound, per cent of control is strictly beneath 90%. Entry: CCOc1cc2ncc(C#N)c(Nc3ccc(OCc4ccccn4)c(Cl)c3)c2cc1NC(=O)/C=C/CN(C)C
Result: Yes

* * *

For each record, write down the corresponding kinase still bound, per cent of control.
molecular target: CDC42BPG (human) (UniProt Q6DT37); test: KINOMEscan competition binding; conditions: compound 10.0 µM
Sequence (Q6DT37 whole entry, looked up): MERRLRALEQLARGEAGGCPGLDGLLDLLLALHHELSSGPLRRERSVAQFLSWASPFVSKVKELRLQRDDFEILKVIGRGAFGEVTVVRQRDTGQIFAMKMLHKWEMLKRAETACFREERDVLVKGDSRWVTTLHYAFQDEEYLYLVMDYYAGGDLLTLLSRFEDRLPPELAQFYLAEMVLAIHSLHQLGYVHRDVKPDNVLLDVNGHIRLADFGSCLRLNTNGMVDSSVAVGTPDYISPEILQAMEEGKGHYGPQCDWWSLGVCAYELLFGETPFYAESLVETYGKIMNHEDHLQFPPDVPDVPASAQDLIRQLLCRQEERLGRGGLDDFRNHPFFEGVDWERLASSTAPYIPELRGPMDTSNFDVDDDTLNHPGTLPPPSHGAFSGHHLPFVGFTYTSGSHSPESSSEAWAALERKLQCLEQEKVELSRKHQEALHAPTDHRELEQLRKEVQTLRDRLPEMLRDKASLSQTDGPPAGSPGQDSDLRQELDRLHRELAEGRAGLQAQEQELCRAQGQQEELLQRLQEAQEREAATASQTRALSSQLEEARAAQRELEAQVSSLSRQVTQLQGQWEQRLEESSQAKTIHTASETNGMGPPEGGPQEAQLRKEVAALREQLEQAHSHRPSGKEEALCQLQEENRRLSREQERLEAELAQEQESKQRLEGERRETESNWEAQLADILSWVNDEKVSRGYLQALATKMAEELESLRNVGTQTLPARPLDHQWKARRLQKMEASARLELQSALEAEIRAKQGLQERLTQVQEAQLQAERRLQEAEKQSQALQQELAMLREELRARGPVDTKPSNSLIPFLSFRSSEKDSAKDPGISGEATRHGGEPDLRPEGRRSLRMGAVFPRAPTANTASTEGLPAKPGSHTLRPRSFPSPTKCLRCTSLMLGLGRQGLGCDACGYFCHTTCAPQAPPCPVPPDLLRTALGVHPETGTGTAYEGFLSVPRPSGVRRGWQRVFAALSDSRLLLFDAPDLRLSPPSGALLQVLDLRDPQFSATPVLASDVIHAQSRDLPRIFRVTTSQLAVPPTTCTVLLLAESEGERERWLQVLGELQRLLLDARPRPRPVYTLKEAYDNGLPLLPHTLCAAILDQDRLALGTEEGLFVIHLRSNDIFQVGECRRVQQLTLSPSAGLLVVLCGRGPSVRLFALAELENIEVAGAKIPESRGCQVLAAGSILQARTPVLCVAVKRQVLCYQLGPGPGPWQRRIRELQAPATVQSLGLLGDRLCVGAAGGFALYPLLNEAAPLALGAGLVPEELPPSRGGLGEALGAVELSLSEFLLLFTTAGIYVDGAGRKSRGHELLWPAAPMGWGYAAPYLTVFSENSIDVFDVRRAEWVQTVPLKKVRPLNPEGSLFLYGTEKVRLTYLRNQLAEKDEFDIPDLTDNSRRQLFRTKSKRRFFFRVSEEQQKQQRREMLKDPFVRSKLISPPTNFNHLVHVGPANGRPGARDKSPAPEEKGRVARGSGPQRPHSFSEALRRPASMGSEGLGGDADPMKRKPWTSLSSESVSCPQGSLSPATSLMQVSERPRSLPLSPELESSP
Numbers only, in %.

Completed entries (count: 6):
COMPOUND	kinase still bound, per cent of control, %
CCOc1cc2ncc(C#N)c(Nc3ccc(OCc4ccccn4)c(Cl)c3)c2cc1NC(=O)/C=C/CN(C)C	100
Cn1c(=O)n(-c2ccc(C(C)(C)C#N)cc2)c2c3cc(-c4cnc5ccccc5c4)ccc3ncc21	100
CC[C@@H]1C(=O)N(C)c2cnc(Nc3ccc(C(=O)NC4CCN(C)CC4)cc3OC)nc2N1C1CCCC1	100
O=C(O)c1ccc(Nc2ncc3c(n2)-c2ccc(Cl)cc2C(c2c(F)cccc2F)=NC3)cc1	92
O=C(NC1CC1)c1cccc(-c2ccc3c(NC(=O)C4CC4)n[nH]c3c2)c1	62
Nc1ccc(-c2ccc3ncc4ccc(=O)n(-c5cccc(C(F)(F)F)c5)c4c3c2)cn1	86

Need kinase still bound, per cent of control for each of these compounds.
1. COc1cc(C(=O)NC2CCN(C)CC2)ccc1Nc1ncc2c(n1)N(C1CCCC1)CCC(=O)N2C(C)C
2. OCCCNc1cc(-c2ccnc(Nc3cccc(Cl)c3)n2)ccn1
3. C=CC(=O)Nc1cccc(Oc2nc(Nc3ccc(N4CCN(C)CC4)cc3OC)ncc2Cl)c1
4. C=CC(=O)Nc1cccc(Nc2nc(N[C@H]3CC[C@H](N(C)C)CC3)nc3c2ncn3C(C)C)c1
5. CCCS(=O)(=O)Nc1ccc(F)c(C(=O)c2c[nH]c3ncc(-c4ccc(Cl)cc4)cc23)c1F

Result:
1: 100; 2: 100; 3: 100; 4: 84; 5: 34

Give me kinase still bound, per cent of control for each of these compounds, listed below.
1. COc1cc(C(=O)NC2CCN(C)CC2)ccc1Nc1ncc2c(n1)N(C1CCCC1)C(C)CC(=O)N2C (centres undefined)
2. O=C(NOC[C@H](O)CO)c1ccc(F)c(F)c1Nc1ccc(I)cc1F

Result:
1: 100; 2: 85

State recorded kinase still bound, per cent of control for all listed compounds.
1. N#Cc1c(NC(=O)c2cccc3ccccc23)sc2c1CCCC2
2. Cc1ccc(NC(=O)c2cccc(C(C)(C)C#N)c2)cc1Nc1ccc2ncn(C)c(=O)c2c1
3. CCN1CCN(Cc2ccc(Nc3ncc4c(n3)N(C)c3ccccc3C(=O)N4C)cc2C(F)(F)F)CC1
4. COc1cc(N2CCN(C)CC2)ccc1Nc1nc(N)c(C(=O)c2c(Cl)cccc2Cl)s1
5. CCC(=O)N1CCN(c2ccc(-n3c(=O)ccc4cnc5ccc(-c6cnc7ccccc7c6)cc5c43)cc2C(F)(F)F)CC1
6. C[C@@H](Oc1cc(-n2cnc3ccc(CN4CCN(C)CC4)cc32)sc1C(N)=O)c1ccccc1C(F)(F)F

Result:
1: 81; 2: 98; 3: 92; 4: 100; 5: 1.6; 6: 100
